# TEST TARGET: Phospholipase D1 (Homo sapiens, UniProt Q13393)
# Sequence (Q13393 whole entry): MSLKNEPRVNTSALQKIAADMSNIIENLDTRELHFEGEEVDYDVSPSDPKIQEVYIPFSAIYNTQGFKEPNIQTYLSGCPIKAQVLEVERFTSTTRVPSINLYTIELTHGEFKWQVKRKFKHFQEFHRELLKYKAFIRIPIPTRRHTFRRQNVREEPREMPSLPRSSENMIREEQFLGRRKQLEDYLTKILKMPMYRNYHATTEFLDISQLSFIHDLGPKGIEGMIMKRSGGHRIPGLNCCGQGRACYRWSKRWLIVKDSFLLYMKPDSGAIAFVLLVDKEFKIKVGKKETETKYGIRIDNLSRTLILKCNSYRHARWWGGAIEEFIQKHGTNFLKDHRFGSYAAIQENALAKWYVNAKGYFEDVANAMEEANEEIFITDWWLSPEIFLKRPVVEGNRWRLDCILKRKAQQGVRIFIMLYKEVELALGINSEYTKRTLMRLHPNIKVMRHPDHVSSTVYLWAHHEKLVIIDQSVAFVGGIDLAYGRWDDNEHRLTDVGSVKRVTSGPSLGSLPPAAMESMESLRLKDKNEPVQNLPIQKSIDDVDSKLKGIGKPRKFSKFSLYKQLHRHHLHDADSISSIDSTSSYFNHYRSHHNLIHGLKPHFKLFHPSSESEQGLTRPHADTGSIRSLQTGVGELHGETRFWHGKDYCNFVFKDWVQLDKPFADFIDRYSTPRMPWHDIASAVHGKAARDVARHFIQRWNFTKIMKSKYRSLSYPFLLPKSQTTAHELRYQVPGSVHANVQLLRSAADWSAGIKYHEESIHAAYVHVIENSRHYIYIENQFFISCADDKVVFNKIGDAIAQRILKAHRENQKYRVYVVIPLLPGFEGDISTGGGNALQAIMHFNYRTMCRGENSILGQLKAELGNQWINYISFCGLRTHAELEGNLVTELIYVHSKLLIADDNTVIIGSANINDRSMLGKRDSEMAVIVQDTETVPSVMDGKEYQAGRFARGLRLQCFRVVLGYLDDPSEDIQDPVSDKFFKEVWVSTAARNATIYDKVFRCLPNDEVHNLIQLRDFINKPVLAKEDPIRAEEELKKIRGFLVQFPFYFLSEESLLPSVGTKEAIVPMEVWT
# ASSAY NOTES: Inhibition of PLD1 (unknown origin) expressed in human Calu1 cells by cell-based assay
pIC50 for assorted compounds
By convention, pIC50 is the negative base-10 log of a molar concentration.

Known results for compounds:
• CC(CNC(=O)c1cc2cc(F)ccc2[nH]1)N1CCC2(CC1)C(=O)NCN2c1ccccc1 (racemic) = 7.46
• O=C(NCCN1CC2CC(n3c(=O)[nH]c4ccccc43)CC2C1)c1ccc(F)cc1 (stereo unspecified) = 6.06
• CC1CC(n2c(=O)[nH]c3ccccc32)CCN1CCNC(=O)[C@@H]1C[C@H]1c1ccccc1 (relative stereo) = 6.94
• CC(CNC(=O)c1ccc(F)cc1)N1CCC2(CC1)C(=O)NCN2c1ccccc1 (racemic) = 5.83

Could you share which pIC50 value was measured for CC(CNC(=O)c1cc2ccccc2[nH]1)N1CCC2(CC1)C(=O)NCN2c1ccccc1 (racemic) ?
7.68

Could you share which pIC50 value was measured for CC1CC(n2c(=O)[nH]c3ccccc32)CCN1CCNC(=O)c1ccc(F)cc1 (stereo unspecified) ?
6.20

Could you share which pIC50 value was measured for O=C(NCCN1CC2CC(n3c(=O)[nH]c4ccccc43)CC2C1)c1cc2ccccc2[nH]1 (stereo unspecified) ?
7.14

Could you share which pIC50 value was measured for O=C(NCCN1CC2CC(n3c(=O)[nH]c4ccccc43)CC2C1)[C@@H]1C[C@H]1c1ccccc1 (relative stereo) ?
5.97

Could you share which pIC50 value was measured for O=C(NCCN1CC2CC(n3c(=O)[nH]c4ccccc43)CC2C1)c1ccc2ccccc2c1 (stereo unspecified) ?
6.61

Could you share which pIC50 value was measured for CC(CNC(=O)c1ccc(F)c(F)c1)N1CCC2(CC1)C(=O)NCN2c1ccccc1 (racemic) ?
5.97

Could you share which pIC50 value was measured for O=C(NCCN1CC2CC(n3c(=O)[nH]c4ccccc43)CC2C1)c1cc2cc(F)ccc2[nH]1 (stereo unspecified) ?
6.64

Could you share which pIC50 value was measured for O=C(NCCN1CC2CC(n3c(=O)[nH]c4ccccc43)CC2C1)c1ccc(Br)cc1 (stereo unspecified) ?
6.33

Could you share which pIC50 value was measured for O=C(NCCN1CCC(n2c(=O)[nH]c3ccccc32)C(F)C1)c1ccc(F)c(F)c1 (stereo unspecified) ?
7.68

====

# TEST TARGET: Phospholipase D2 (Homo sapiens, UniProt O14939)
# Sequence (O14939 whole entry): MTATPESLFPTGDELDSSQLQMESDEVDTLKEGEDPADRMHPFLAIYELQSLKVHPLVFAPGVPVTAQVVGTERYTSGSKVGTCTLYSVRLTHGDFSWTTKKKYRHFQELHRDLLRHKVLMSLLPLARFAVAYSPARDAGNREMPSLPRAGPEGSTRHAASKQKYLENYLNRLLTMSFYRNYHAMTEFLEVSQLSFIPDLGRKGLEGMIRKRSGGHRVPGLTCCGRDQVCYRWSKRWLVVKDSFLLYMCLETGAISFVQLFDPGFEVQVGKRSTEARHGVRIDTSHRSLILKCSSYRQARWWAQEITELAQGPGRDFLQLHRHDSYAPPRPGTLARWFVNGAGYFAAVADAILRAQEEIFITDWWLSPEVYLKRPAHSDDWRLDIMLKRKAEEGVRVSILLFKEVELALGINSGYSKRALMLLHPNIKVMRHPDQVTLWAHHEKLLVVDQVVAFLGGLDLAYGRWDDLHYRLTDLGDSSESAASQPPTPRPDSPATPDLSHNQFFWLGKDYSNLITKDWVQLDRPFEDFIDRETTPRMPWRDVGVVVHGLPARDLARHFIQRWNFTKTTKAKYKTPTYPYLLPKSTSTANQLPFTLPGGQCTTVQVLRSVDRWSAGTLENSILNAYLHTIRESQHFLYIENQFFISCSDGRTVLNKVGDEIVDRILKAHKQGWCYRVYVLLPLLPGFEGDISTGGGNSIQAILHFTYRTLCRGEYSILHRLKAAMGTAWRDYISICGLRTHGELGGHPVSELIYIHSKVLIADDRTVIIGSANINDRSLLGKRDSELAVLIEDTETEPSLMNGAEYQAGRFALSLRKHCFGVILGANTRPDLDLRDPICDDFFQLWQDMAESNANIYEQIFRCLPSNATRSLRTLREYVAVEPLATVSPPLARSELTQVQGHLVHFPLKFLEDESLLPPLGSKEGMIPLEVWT
# ASSAY NOTES: Inhibition of PLD2 (unknown origin) expressed in HEK293-gfp cells by cell-based assay
READOUT KIND: pIC50
By convention, pIC50 is the negative base-10 log of a molar concentration.

- O=C(NCCN1CC2CC(n3c(=O)[nH]c4ccccc43)CC2C1)[C@@H]1C[C@H]1c1ccccc1 (relative stereo): 6.94
- CC(CNC(=O)c1ccc2ccccc2c1)N1CCC2(CC1)C(=O)NCN2c1ccccc1 (racemic): 7.19
- CC(CNC(=O)c1cc2ccccc2[nH]1)N1CCC2(CC1)C(=O)NCN2c1ccccc1 (racemic): 8.22
- O=C(NCCN1CC2CC(n3c(=O)[nH]c4ccccc43)CC2C1)c1cc2cc(F)ccc2[nH]1 (stereo not drawn): 5.91
- CC(CNC(=O)c1cc2cc(F)ccc2[nH]1)N1CCC2(CC1)C(=O)NCN2c1ccccc1 (racemic): 7.74

Request body: readout pIC50, system Phospholipase D2 (Homo sapiens, UniProt O14939), query CC(CNC(=O)c1ccc(F)cc1)N1CCC2(CC1)C(=O)NCN2c1ccccc1 (racemic) . Return the value.
6.54

Request body: readout pIC50, system Phospholipase D2 (Homo sapiens, UniProt O14939), query O=C(NCCN1CC2CC(n3c(=O)[nH]c4ccccc43)CC2C1)c1ccc(F)c(F)c1 (stereo not drawn) . Return the value.
5.49

Request body: readout pIC50, system Phospholipase D2 (Homo sapiens, UniProt O14939), query CC(CNC(=O)c1ccc(F)c(F)c1)N1CCC2(CC1)C(=O)NCN2c1ccccc1 (racemic) . Return the value.
7.77

====

# TEST TARGET: Phospholipase D1 (Homo sapiens)
# ASSAY NOTES: Inhibition of PLD1 (unknown origin) expressed in human Calu1 cells by cell-based assay
READOUT KIND: pIC50
By convention, pIC50 is the negative base-10 log of a molar concentration.

- O=C(NCCN1CC2CC(n3c(=O)[nH]c4ccccc43)CC2C1)c1ccc(F)c(F)c1 (stereo not drawn): 6.09
- CC(CNC(=O)c1ccc(Br)cc1)N1CCC2(CC1)C(=O)NCN2c1ccccc1 (racemic): 6.64

Moving on to the next molecule.
Could you share which pIC50 value was measured for CC(CNC(=O)c1ccc2ccccc2c1)N1CCC2(CC1)C(=O)NCN2c1ccccc1 (racemic) ?
6.50
